biological target: UniProtKB P56817; assay: Activity of recombinant BACE assessed as retention time of substrate by HPLC method
Sequence (P56817 whole entry): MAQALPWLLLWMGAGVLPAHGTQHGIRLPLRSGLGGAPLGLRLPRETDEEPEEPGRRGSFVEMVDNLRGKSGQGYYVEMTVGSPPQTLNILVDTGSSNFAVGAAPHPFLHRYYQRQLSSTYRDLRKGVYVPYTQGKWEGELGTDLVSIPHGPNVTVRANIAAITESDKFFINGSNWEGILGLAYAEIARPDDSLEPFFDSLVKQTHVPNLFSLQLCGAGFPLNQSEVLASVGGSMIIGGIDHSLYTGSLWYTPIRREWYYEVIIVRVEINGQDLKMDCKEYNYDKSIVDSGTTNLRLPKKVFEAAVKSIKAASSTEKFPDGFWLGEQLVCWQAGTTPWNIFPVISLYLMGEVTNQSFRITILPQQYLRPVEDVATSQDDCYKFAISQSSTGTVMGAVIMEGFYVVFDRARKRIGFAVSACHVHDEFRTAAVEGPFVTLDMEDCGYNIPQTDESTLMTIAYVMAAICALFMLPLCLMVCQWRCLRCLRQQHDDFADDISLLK
Non-standard residues stand in square brackets, D forms with d. Residues, ends and D or L forms follow the SMILES beside them. 2Thi = N[C@@H](Cc1cccs1)C(=O)O; Cha = N[C@@H](CC1CCCCC1)C(=O)O; Nva = CCC[C@H](N)C(=O)O; Abu = CC[C@H](N)C(=O)O
retention time for assorted molecules
PARAMETER: retention time (h)

MOLECULE | ASSAY VALUE
CCC[C@H](NC(=O)[C@H](CC(N)=O)NC(=O)[C@@H](NC(=O)[C@H](CCC(=O)O)NC(=O)[C@H](CO)NC(=O)[C@@H](N)[C@@H](C)CC)C(C)C)C(=O)N[C@@H](CC(=O)O)C(=O)N[C@@H](C)C(=O)N[C@@H](CCC(=O)O)C(=O)N[C@@H](Cc1ccccc1)C(=O)N[C@@H](CCCNC(=N)N)C(=O)N[C@@H](Cc1cnc[nH]1)C(N)=O (H-ISEVN[Nva]DAEFRH-NH2) | 0.45
CC[C@H](NC(=O)[C@H](CC(C)C)NC(=O)[C@H](CC(N)=O)NC(=O)[C@@H](NC(=O)[C@H](CCC(=O)O)NC(=O)[C@H](CO)NC(=O)[C@@H](N)[C@@H](C)CC)C(C)C)C(=O)N[C@@H](C)C(=O)N[C@@H](CCC(=O)O)C(=O)N[C@@H](Cc1ccccc1)C(=O)N[C@@H](CCCNC(=N)N)C(=O)N[C@@H](Cc1cnc[nH]1)C(N)=O (H-ISEVNL[Abu]AEFRH-NH2) | 0.585
CC[C@H](C)[C@H](N)C(=O)N[C@@H](CO)C(=O)N[C@@H](CC1CCCCC1)C(=O)N[C@H](C(=O)N[C@@H](CC(N)=O)C(=O)N[C@@H](CC(C)C)C(=O)N[C@@H](CC(=O)O)C(=O)N[C@@H](C)C(=O)N[C@@H](CCC(=O)O)C(=O)N[C@@H](Cc1ccccc1)C(=O)N[C@@H](CCCNC(=N)N)C(=O)N[C@@H](Cc1cnc[nH]1)C(N)=O)C(C)C (H-IS[Cha]VNLDAEFRH-NH2) | 0.689
CC[C@H](C)[C@H](N)C(=O)N[C@@H](CO)C(=O)N[C@@H](CCC(=O)O)C(=O)N[C@@H](CC1CCCCC1)C(=O)N[C@@H](CC(N)=O)C(=O)N[C@@H](CC(C)C)C(=O)N[C@@H](CC(=O)O)C(=O)N[C@@H](C)C(=O)N[C@@H](CCC(=O)O)C(=O)N[C@@H](Cc1ccccc1)C(=O)N[C@@H](CCCNC(=N)N)C(=O)N[C@@H](Cc1cnc[nH]1)C(N)=O (H-ISE[Cha]NLDAEFRH-NH2) | 0.592
CC[C@H](C)[C@H](N)C(=O)N[C@@H](CO)C(=O)N[C@@H](Cc1cccs1)C(=O)N[C@H](C(=O)N[C@@H](CC(N)=O)C(=O)N[C@@H](CC(C)C)C(=O)N[C@@H](CC(=O)O)C(=O)N[C@@H](C)C(=O)N[C@@H](CCC(=O)O)C(=O)N[C@@H](Cc1ccccc1)C(=O)N[C@@H](CCCNC(=N)N)C(=O)N[C@@H](Cc1cnc[nH]1)C(N)=O)C(C)C (H-IS[2Thi]VNLDAEFRH-NH2) | 0.591
